- Procedure details: differential killing of epithelial or mesenchymal cells, primary screen, imaging, PC-3E GFP, TEM4-18 mCherry, co-culture (AID 1345086);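 further: normalised mesenchymal count divided by normalised epithelial count so high means epithelial killing; cells exposed to compound for 72 h before imaging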
- Condition notes: imaging cell counts, at 1 µM, actives lie on both sides, counts scaled to control wells, 1 = unselective
Active and inactive are the calls of the source.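 How the source made its calls: active means compounds killing one labelled cell type while sparing the other, by normalised counts and ratio limits, not self-fluorescent; inactive means the rest.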
Quick list: red/green cell ratio (normalised) per entry.

Recorded results for 8 compounds are shown here.
Query string: Which red/green cell ratio (normalised) value is on record for O=C(CCc1ccc(O)cc1)c1c(O)cc(O)cc1O[C@@H]1O[C@H](CO)[C@@H](O)[C@H](O)[C@H]1O ?
Result string: 1 (inactive)

Query string: What about CN1C(=O)OC(C)(C)C1=O ?
Result string: 0.94 (inactive)

Query string: What about COc1c2ccoc2cc2oc(C)cc(=O)c12 ?
Result string: 0.91 (inactive)

Query string: What about O=C1Cc2cc(CCN3CCN(c4nsc5ccccc45)CC3)c(Cl)cc2N1 ?
Result string: 0.94 (inactive)

Query string: What about CN1C(CC(=O)c2ccccc2)CCCC1CC(O)c1ccccc1 (stereo not drawn) ?
Result string: 1.04 (inactive)

Query string: What about Oc1cc(O)c2c(c1)O[C@H](c1cc(O)c(O)c(O)c1)[C@H](O)C2 ?
Result string: 1.12 (inactive)

Query string: What about Cc1ccc(/C(=C\CN2CCCC2)c2ccccn2)cc1 ?
Result string: 1.28 (inactive)

Query string: What about COc1c2c(cc3occ(-c4ccc5c(c4)OCO5)c(=O)c13)OC(C)(C)C=C2 ?
Result string: 0.95 (inactive)

Further cases:
Query string: Which red/green cell ratio (normalised) value is on record for CC(=O)Nc1c(I)c(NC(C)=O)c(I)c(C(=O)O)c1I ?
Result string: 1.17 (inactive)

Query string: What about COc1ccc(-c2cc(=O)c3c(O)cc(O)cc3o2)cc1O ?
Result string: 0.91 (inactive)

Query string: What about Cc1nc(Nc2ncc(C(=O)Nc3c(C)cccc3Cl)s2)cc(N2CCN(CCO)CC2)n1 ?
Result string: 1.54 (inactive)

Query string: What about O=c1c(-c2cc(O)c(O)c(O)c2)coc2cc(O)c(O)c(O)c12 ?
Result string: 0.99 (inactive)

Query string: What about C=C(C)[C@H]1COc2cc3oc(=O)ccc3cc2O1 ?
Result string: 0.95 (inactive)

Query string: What about OCc1c[nH]c2ccccc12 ?
Result string: 0.93 (inactive)

Query string: What about CC(=O)O[C@@H]1CC[C@@]2(C)C(C[C@@H](OC(C)=O)[C@@]3(C)C4=CC(=O)O[C@@H](c5ccoc5)[C@]4(C)CCC23)C1(C)C (stereo partly drawn) ?
Result string: 0.98 (inactive)

Query string: What about C[n+]1cccc(C(=O)[O-])c1 ?
Result string: 0.83 (inactive)

Query string: What about Cc1cc(O)c2c(c1)C(=O)c1cccc(O)c1C2=O ?
Result string: 1.03 (inactive)

Query string: What about O=S(=O)(O)NC1CCCCC1 ?
Result string: 0.89 (inactive)

Query string: What about CC(=O)c1ccc[nH]1 ?
Result string: 0.97 (inactive)

Query string: What about CC(=O)N1CCN(c2ccc(OCC3CO[C@](Cn4ccnc4)(c4ccc(Cl)cc4Cl)O3)cc2)CC1 (stereo partly drawn) ?
Result string: 0.9 (inactive)

Query string: What about COc1c(-c2coc3cc4c(cc3c2=O)CC(O)C(C)(C)O4)ccc2c1C=CC(C)(C)O2 (stereo not drawn) ?
Result string: 0.82 (inactive)

Query string: What about CC(=O)N(CC(O)CN(C(C)=O)c1c(I)c(C(=O)NCC(O)CO)c(I)c(C(=O)NCC(O)CO)c1I)c1c(I)c(C(=O)NCC(O)CO)c(I)c(C(=O)NCC(O)CO)c1I (stereo not drawn) ?
Result string: 1.05 (inactive)

Query string: What about CC(C)[C@@H]1CC[C@@H](C)CC1=O ?
Result string: 0.93 (inactive)

Query string: What about CC(C)NCC(O)COc1cccc2ccccc12 (stereo not drawn) ?
Result string: 1.4 (inactive)

Query string: What about CC(C)OC(=O)C(C)(C)Oc1ccc(C(=O)c2ccc(Cl)cc2)cc1 ?
Result string: 1.01 (inactive)

Query string: What about O=C1c2ccc(O)c(O)c2C(=O)c2c(O)ccc(O)c21 ?
Result string: 1.12 (inactive)

Query string: What about CC(C)(C)c1ccc(C(O)CCCN2CCC(C(O)(c3ccccc3)c3ccccc3)CC2)cc1 (stereo not drawn) ?
Result string: 0.94 (inactive)

Query string: What about O=C(Oc1cccc2cccnc12)c1ccccc1 ?
Result string: 1 (inactive)

Query string: What about CN(C)C(=N)N=C(N)N ?
Result string: 0.72 (inactive)

Query string: What about CN/C(=C\[N+](=O)[O-])NCCSCc1ccc(CN(C)C)o1 ?
Result string: 1.01 (inactive)

Query string: What about CN(C)CCN(Cc1ccc(Cl)cc1)c1ccccn1 ?
Result string: 0.8 (inactive)

Query string: What about Cc1cccc(C)c1NC(=O)C1CCCCN1C (stereo not drawn) ?
Result string: 1.21 (inactive)

Query string: What about COc1cc(/C=C/C(N)=O)cc(OC)c1OC ?
Result string: 0.8 (inactive)

Query string: What about CC(=O)OCC(=O)[C@@]1(O)CCC2C3CCC4=CC(=O)CC[C@]4(C)C3[C@@H](O)C[C@@]21C (stereo partly drawn) ?
Result string: 1.16 (inactive)
